target: GABAA receptor; assay: Steroid inhibition of [35S]-TBPS binding; conditions: rat brain cortical membranes, 3 nM [35S]-TBPS, in the presence of 5 mM GABA
pIC50: −log10 of the molar value.
Measured pIC50, listed per entry for reference.

Known pIC50 results, listed for orientation:
CN(CC(=O)[C@H]1CC[C@H]2[C@@H]3CC[C@@H]4C[C@](C)(O)CC[C@@H]4[C@H]3CC[C@]12C)c1cccc(F)c1 | 7.30 to 8.00
CN(Cc1cccnc1)C(=O)[C@H]1CC[C@H]2[C@@H]3CC[C@@H]4C[C@](C)(O)CC[C@@H]4[C@H]3CC[C@]12C | 6.30 to 7.00
C[C@@]1(O)CC[C@H]2[C@H](CC[C@@H]3[C@@H]2CC[C@]2(C)[C@@H](C(=O)N4CC[C@@H](c5ccccc5)C4)CC[C@@H]32)C1 | 6.30 to 7.00
CO[C@H]1C[C@@]2(C)[C@@H](CC[C@@H]3[C@@H]2CC[C@]2(C)[C@@H]([N+](=O)[O-])CC[C@@H]32)C[C@@H]1O | 7.30 to 8.00

Turning to the following compound.
Task item: Recorded pIC50 of C[C@@]1(O)CC[C@H]2[C@H](CC[C@@H]3[C@@H]2CC[C@]2(C)[C@@H](C(=O)NCc4cccnc4)CC[C@@H]32)C1 , please.
Reply: < 6.30

----------
Measured IC50, listed per entry for reference.
target: GABAA receptor; assay: Steroid inhibition of [35S]-TBPS binding; details: rat brain cortical membranes, 3 nM [35S]-TBPS, in the presence of 5 mM GABA

Known IC50 results, listed for orientation:
COC[C@]12CC[C@](O)(C(F)(F)F)C[C@H]1CC[C@H]1[C@@H]3CC[C@H](C(=O)Nc4ccccc4)[C@@]3(C)CC[C@@H]12 [Compound 78] | 50 to 100 nM
CCO[C@H]1C[C@@]2(C)[C@@H](CC[C@@H]3[C@@H]2[C@@H](O)C[C@]2(C)[C@@H]([N+](=O)[O-])CC[C@@H]32)C[C@@H]1O [Compound 122] | 100 to 500 nM
CCOC[C@@]1(O)CC[C@H]2[C@H](CC[C@@H]3[C@@H]2CC[C@]2(C)[C@@H](C(=O)N4CCC[C@H]4c4ncco4)CC[C@@H]32)C1 [Compound 55] | > 500 nM
COC[C@]12CC[C@](O)(C(F)(F)F)C[C@H]1CC[C@H]1[C@@H]3CC[C@H](C(=O)CNc4ccccc4)[C@@]3(C)CC[C@@H]12 [Compound 77] | 10 to 50 nM
CN(C(=O)[C@H]1CC[C@H]2[C@@H]3CC[C@@H]4C[C@](C)(O)CC[C@@H]4[C@H]3CC[C@]12C)C1CCOCC1 [Compound 10] | 100 to 500 nM
C[C@@]1(O)CC[C@@]2(C)[C@@H](CC[C@@H]3[C@@H]2CC[C@]2(C)[C@@H](Nc4ccccc4)CC[C@@H]32)C1 [Compound 87] | 100 to 500 nM

Task item: Recorded IC50 of C[C@@H](NC(=O)[C@H]1CC[C@H]2[C@@H]3CC[C@@H]4C[C@](C)(O)CC[C@@H]4[C@H]3CC[C@]12C)c1ccccc1 [Compound 20] , please.
Reply: 100 to 500 nM

Task item: Recorded IC50 of CN(CC1CCCCC1)C(=O)[C@H]1CC[C@H]2[C@@H]3CC[C@@H]4C[C@](C)(O)CC[C@@H]4[C@H]3CC[C@]12C [Compound 26] , please.
Reply: 100 to 500 nM

Task item: Recorded IC50 of CN(CCc1ccccc1)C(=O)[C@H]1CC[C@H]2[C@@H]3CC[C@@H]4C[C@](C)(O)CC[C@@H]4[C@H]3CC[C@]12C [Compound 18] , please.
Reply: 50 to 100 nM

Task item: Recorded IC50 of CCOC[C@@]1(O)CC[C@H]2[C@H](CC[C@@H]3[C@@H]2CC[C@]2(C)[C@@H](C(=O)N(C)[C@H](C)c4ccc(C#N)cc4)CC[C@@H]32)C1 [Compound 49] , please.
Reply: 50 to 100 nM

Task item: Recorded IC50 of CCOC[C@@]1(O)CC[C@H]2[C@H](CC[C@@H]3[C@@H]2CC[C@]2(C)[C@@H](C(=O)N[C@H](CC)c4ccc(F)cc4)CC[C@@H]32)C1 [Compound 58] , please.
Reply: > 500 nM
